Sourced from patent US9751869B2

Molecular target: LXRβ (Homo sapiens, UniProt P55055)
Construct: Co-transfection expression plasmids, comprising full-length LXRα (pCMX-h LXRα or LXRβ (pCMX-hLXRβ)); expressed in transfected cells; host or cells: CV-1 African green monkey kidney cells, transient transfection with pCMX-hLXRβ
Sequence (P55055 whole entry): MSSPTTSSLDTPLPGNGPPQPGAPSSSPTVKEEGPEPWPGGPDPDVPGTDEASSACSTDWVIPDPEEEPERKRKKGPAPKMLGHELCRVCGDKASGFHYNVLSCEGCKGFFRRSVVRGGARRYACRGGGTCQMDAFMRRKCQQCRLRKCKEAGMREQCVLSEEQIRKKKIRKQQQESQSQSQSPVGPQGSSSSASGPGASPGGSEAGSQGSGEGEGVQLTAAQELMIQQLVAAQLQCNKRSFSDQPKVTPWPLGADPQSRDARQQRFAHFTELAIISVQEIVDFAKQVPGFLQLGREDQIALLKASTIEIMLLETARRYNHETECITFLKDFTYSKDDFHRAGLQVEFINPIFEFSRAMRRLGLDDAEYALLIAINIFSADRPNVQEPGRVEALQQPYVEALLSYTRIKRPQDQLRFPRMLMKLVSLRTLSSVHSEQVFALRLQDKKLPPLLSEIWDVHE
Sequence (P19793 whole entry partner): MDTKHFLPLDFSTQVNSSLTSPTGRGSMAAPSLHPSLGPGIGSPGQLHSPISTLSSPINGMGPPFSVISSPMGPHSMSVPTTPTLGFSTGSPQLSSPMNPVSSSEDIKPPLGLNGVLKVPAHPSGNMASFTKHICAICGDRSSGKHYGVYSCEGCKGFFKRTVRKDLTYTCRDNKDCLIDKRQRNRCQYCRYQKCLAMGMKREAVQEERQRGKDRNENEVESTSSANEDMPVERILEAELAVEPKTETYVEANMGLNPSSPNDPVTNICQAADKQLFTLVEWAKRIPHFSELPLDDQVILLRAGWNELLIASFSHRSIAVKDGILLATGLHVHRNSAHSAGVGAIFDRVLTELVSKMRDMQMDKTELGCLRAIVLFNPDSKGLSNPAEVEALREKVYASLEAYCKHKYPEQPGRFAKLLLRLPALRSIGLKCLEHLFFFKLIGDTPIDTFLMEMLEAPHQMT
Experiment: LXR/LXRE co-transfection assay (luciferase reporter) in CV-1 cells, LXRβ
Format: cell-based
Details: CV-1 cells, relative to maximum response of high control N-(3-((4-fluorophenyl)-(naphthalene-2-sulfonyl)amino)propyl)-2,2-dimethylpropionamide, read-out: LXRbeta % EFFICACY
Each record is given label 1 if its reported Emax is strictly below 70%. Records at or above 70% are given label 0.

Query string: # check: Emax < 70% for `Cc1nc(-c2ccc3c(c2)OC(F)(F)O3)c(-c2cc(-c3cccc(S(C)(=O)=O)c3)ccc2-n2ccc(C#N)n2)o1`
Result string: label 1

---

Biological target: LXRβ (Homo sapiens, UniProt P55055)
Construct: Co-transfection expression plasmids, comprising full-length LXRα (pCMX-h LXRα or LXRβ (pCMX-hLXRβ)); expressed in transfected cells; host or cells: CV-1 African green monkey kidney cells, transient transfection with pCMX-hLXRβ
Experiment: LXR/LXRE co-transfection assay (luciferase reporter) in CV-1 cells, LXRβ
Type: cell-based
Conditions: CV-1 cells, relative to maximum response of high control N-(3-((4-fluorophenyl)-(naphthalene-2-sulfonyl)amino)propyl)-2,2-dimethylpropionamide, read-out: LXRbeta % EFFICACY
Endpoint: Emax (%)
The answer is to be given in %; state only the numeric part.

Check out these entries, answers already filled in.
Cn1nc(C(F)F)cc1-c1ccc(-c2cc(F)c(CO)c(S(C)(=O)=O)c2)cc1-n1nncc1-c1ccc(OC(F)(F)F)cc1    79
Cc1nc(-c2cc(-c3cccc(S(C)(=O)=O)c3)ccc2-n2nc(C(F)(F)F)cc2C)c(-c2ccc(OC(F)(F)F)cc2)o1    71

Okay, next one:
Query string: Consider the molecule `Cn1nc(C(F)(F)C(C)(C)O)cc1-c1ccc(-c2cccc(S(C)(=O)=O)c2)cc1-n1nncc1-c1ccc2c(c1)OC(F)(F)O2` and give its measured Emax.
Result string: 66

---

Target: LXRβ (Homo sapiens, UniProt P55055)
Construct: Co-transfection expression plasmids, comprising full-length LXRα (pCMX-h LXRα or LXRβ (pCMX-hLXRβ)); expressed in transfected cells; host or cells: CV-1 African green monkey kidney cells, transient transfection with pCMX-hLXRβ
Experiment: LXR/LXRE co-transfection assay (luciferase reporter) in CV-1 cells, LXRβ
Format: cell-based
Settings: CV-1 cells, relative to maximum response of high control N-(3-((4-fluorophenyl)-(naphthalene-2-sulfonyl)amino)propyl)-2,2-dimethylpropionamide
Endpoint: LXRbeta % EFFICACY (%)
Numbers only; they are read as %.

Solved entries (count: 2):
Cc1nc(-c2ccc3c(c2)OC(F)(F)O3)c(-c2cc(-c3cc(F)c(CO)c(S(C)(=O)=O)c3)ccc2-c2cc(C(C)OC(N)=O)nn2C)o1 (stereo not drawn)    49
Cc1nc(-c2ccc3c(c2)OC(F)(F)O3)c(-c2cc(-c3cccc(S(C)(=O)=O)c3)ccc2-c2cc(C(F)(F)CO)nn2C)o1    69

Query string: Which LXRbeta % EFFICACY reading was recorded for the molecule Cc1nc(-c2ccc3c(c2)OC(F)(F)O3)c(-c2cc(-c3cccc(S(C)(=O)=O)c3)ccc2-c2cc(C(C)C#N)nn2C)o1 (stereo not drawn) [Example 117] ?
Result string: 70

Query string: Returns the measured LXRbeta % EFFICACY for the input molecule. Input: Cc1nc(-c2ccc(OC(F)(F)F)cc2)c(-c2cc(-c3cccc(S(C)(=O)=O)c3)ccc2-n2ccc(C(C)O)n2)o1 (single isomer, unassigned)
Result string: 50

Query string: Please look up its LXRbeta % EFFICACY: Cc1nc(-c2ccc3c(c2)OC(F)(F)O3)c(-c2cc(-c3cc(F)c(CO)c(S(C)(=O)=O)c3)ccc2-c2cc(C(C)O)nn2C)o1 (stereo not drawn)
Result string: 56

Query string: // query LXRbeta % EFFICACY value for entry Cc1nc(-c2ccc3c(c2)OC(F)(F)O3)c(-c2cc(-c3cccc(S(C)(=O)=O)c3)ccc2-c2cc(C(C)OC(N)=O)nn2C)o1 (stereo not drawn)
Result string: 56
